biological target: LRRK2 WT (Homo sapiens); construct: purchased Life Technologies PR8604B; experiment: LRRK2 Kinase Activity Assay (LanthaScreen TR-FRET), wild type; assay type: biochemical; details: recombinant wild type LRRK2, 25 μM ATP, 400 nM LRRKtide, 60 min; class symbols
Sequence (Q5S007 whole entry): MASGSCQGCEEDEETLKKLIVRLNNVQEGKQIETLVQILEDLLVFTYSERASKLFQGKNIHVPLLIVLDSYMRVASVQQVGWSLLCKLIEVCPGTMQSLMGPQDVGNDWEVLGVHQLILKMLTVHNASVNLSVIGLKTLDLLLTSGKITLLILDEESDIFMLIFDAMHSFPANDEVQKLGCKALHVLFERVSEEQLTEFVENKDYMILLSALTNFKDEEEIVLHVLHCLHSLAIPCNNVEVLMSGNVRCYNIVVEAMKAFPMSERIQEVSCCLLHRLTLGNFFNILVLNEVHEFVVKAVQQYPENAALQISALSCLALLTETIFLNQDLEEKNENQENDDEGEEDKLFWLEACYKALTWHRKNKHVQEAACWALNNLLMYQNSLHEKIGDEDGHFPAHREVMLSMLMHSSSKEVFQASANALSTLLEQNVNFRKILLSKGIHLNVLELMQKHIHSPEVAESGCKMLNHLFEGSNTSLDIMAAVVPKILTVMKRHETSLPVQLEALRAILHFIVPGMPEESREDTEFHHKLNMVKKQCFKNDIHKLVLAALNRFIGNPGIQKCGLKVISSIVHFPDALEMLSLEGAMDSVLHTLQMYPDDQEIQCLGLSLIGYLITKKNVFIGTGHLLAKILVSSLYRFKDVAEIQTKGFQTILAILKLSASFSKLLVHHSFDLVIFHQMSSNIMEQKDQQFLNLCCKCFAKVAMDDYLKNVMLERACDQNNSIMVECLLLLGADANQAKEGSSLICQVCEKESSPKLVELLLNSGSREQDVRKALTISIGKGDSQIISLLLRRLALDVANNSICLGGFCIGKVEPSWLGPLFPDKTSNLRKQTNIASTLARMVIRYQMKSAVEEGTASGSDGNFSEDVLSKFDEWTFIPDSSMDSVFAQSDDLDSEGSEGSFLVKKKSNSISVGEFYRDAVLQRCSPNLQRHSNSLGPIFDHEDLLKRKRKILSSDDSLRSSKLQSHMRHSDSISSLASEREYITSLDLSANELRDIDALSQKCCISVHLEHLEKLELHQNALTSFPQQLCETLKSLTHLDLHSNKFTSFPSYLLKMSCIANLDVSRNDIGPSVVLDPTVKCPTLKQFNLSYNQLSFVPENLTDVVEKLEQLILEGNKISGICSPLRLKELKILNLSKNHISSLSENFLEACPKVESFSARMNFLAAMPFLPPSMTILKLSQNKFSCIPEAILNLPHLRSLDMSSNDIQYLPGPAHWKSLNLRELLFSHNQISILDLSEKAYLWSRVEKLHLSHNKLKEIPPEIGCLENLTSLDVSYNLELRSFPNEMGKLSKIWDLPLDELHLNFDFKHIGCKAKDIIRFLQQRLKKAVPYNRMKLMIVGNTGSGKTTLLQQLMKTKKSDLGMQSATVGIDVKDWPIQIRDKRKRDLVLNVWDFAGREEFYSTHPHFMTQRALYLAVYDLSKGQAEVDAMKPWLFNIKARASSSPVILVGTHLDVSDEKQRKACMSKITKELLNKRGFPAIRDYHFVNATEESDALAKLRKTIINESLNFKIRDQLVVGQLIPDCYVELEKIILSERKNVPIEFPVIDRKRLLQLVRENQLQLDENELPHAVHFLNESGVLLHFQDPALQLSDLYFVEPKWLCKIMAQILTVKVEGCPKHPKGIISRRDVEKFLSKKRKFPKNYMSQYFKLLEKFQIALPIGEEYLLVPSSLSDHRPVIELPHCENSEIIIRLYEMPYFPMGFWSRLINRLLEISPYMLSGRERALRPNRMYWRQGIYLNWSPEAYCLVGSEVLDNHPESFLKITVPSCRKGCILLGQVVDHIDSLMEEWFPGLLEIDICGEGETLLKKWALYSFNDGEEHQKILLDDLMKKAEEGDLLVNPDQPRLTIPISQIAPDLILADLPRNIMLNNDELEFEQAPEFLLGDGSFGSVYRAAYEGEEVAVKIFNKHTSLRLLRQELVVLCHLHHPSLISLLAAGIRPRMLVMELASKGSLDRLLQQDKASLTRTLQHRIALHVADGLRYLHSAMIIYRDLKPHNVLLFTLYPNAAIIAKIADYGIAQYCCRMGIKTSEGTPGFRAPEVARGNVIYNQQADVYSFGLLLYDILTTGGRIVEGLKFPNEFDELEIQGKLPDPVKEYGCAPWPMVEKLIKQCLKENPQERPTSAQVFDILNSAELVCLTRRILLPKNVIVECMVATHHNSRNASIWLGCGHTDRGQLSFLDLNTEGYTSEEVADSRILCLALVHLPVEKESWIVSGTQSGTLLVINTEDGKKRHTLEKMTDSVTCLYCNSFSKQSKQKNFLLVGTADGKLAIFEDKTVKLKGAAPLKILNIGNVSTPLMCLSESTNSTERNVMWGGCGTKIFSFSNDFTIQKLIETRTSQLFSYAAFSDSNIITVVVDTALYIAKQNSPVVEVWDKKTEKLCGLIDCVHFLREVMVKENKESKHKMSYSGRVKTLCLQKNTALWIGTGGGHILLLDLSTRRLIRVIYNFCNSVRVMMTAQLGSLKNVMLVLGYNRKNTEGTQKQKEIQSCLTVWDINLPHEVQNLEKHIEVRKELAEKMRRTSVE
measured-property: IC50

Consider the following illustrative entries.
{"columns": ["molecule", "result"],
 "data": [
  ["CC1(C)CC[C@H](Nc2ccc3[nH]nc(-c4cnco4)c3c2)c2ccc(C#N)cc21 (single isomer, unassigned) [Example 115, enantiomer 1]", "0.1 to 1 µM"],
  ["N#Cc1ccc2c(c1)CCC[C@@H]2Oc1ccc2[nH]nc(-c3cnco3)c2c1 (single isomer, unassigned) [Example 18, enantiomer 1]", "< 0.1 µM"],
  ["N#Cc1ccc2c(c1)CCC[C@@H]2Nc1ccc2[nH]nc(-c3ccc(N4CCOCC4)cc3)c2c1 (single isomer, unassigned)", "< 0.1 µM"],
  ["N#Cc1ccc2c(c1)CC[C@@H]2Nc1ccc2[nH]nc(C3CC3)c2c1 (single isomer, unassigned) [Example 134, enantiomer 1]", "1 to 10 µM"],
  ["N#Cc1ccc2c(c1)CC[C@H]2Nc1ccc2[nH]nc(-c3cnco3)c2n1 (single isomer, unassigned) [Example 30, enantiomer 2]", "0.1 to 1 µM"],
  ["CN(c1ccc2[nH]nc(-c3cnco3)c2c1)[C@H]1CCc2cc(C#N)ccc21 (single isomer, unassigned) [Example 111, enantiomer 2]", "0.1 to 1 µM"],
  ["COc1n[nH]c2ccc(O[C@H]3CCc4cc(C#N)c(Cl)cc43)cc12 (single isomer, unassigned) [189, enantiomer 2]", "0.1 to 1 µM"],
  ["COc1c(C#N)cnc2c1CC[C@@H]2Nc1ccc2[nH]nc(-c3cnco3)c2c1 (single isomer, unassigned) [Example 154, enantiomer 1]", "0.1 to 1 µM"],
  ["COc1nc2c(cc1C#N)CCC[C@@H]2Oc1ccc2[nH]nc(-c3cnco3)c2c1 (single isomer, unassigned) [179, enantiomer 2]", "0.1 to 1 µM"],
  ["C[C@H]1CCc2cc(C#N)ccc2[C@H]1Nc1ccc2[nH]nc(-c3cnco3)c2c1 (single isomer, unassigned) [Example 173, enantiomer 2]", "0.1 to 1 µM"]
]}

[ask] Provide LRRK2 WT (Homo sapiens) IC50 reading for COc1c(C#N)cnc2c1CC[C@@H]2Nc1ccc2[nH]nc(-c3cnco3)c2c1 (single isomer, unassigned) [Example 154, enantiomer 2] .
[reply] < 0.1 µM

[ask] Provide LRRK2 WT (Homo sapiens) IC50 reading for N#Cc1cnc2c(c1)CCC[C@@H]2Oc1ccc2[nH]nc(-c3cnccn3)c2c1 (single isomer, unassigned) [Example 161, enantiomer 2] .
[reply] 0.1 to 1 µM

[ask] Provide LRRK2 WT (Homo sapiens) IC50 reading for N#Cc1cc2c(nc1Cl)[C@@H](Oc1ccc3[nH]nc(-c4cnco4)c3c1)CCC2 (single isomer, unassigned) [177, enantiomer 1] .
[reply] < 0.1 µM

[ask] Provide LRRK2 WT (Homo sapiens) IC50 reading for N#Cc1cc2c(cc1F)[C@@H](Oc1ccc3[nH]nc(-c4cnco4)c3c1)CC2 (single isomer, unassigned) [Example 23, enantiomer 1] .
[reply] < 0.1 µM

[ask] Provide LRRK2 WT (Homo sapiens) IC50 reading for N#Cc1cnc2c(c1)C1CC1[C@@H]2Nc1ccc2[nH]nc(-c3cnco3)c2c1 (single isomer, unassigned) [Example 48, enantiomer 2] .
[reply] < 0.1 µM

[ask] Provide LRRK2 WT (Homo sapiens) IC50 reading for Cc1c(C#N)cnc2c1CC[C@@H]2Oc1ccc2[nH]nc(-c3cnco3)c2c1 (single isomer, unassigned) [Example 107, enantiomer 1] .
[reply] < 0.1 µM

[ask] Provide LRRK2 WT (Homo sapiens) IC50 reading for COc1n[nH]c2ccc(O[C@H]3CCc4cc(C#N)c(Br)nc43)cc12 (single isomer, unassigned) [187, enantiomer 2] .
[reply] 0.1 to 1 µM

----------
target: LRRK2 G2019S (Homo sapiens, UniProt Q5S007, G2019S); assay: LRRK2 Kinase Activity Assay (LanthaScreen TR-FRET), G2019S; settings: recombinant G2019S-LRRK2, 25 μM ATP, 400 nM LRRKtide, 60 min; class symbols
Sequence (Q5S007 whole entry G2019S): as the sequence (Q5S007 whole entry) above, with G2019S counted along it
measured-property: IC50

{"columns": ["compound", "measured-property", "result"],
 "data": [
  ["N#Cc1cc2c(nc1Cl)[C@@H](Nc1ccc3[nH]nc(-c4cnco4)c3c1)CCC2 (single isomer, unassigned) [Example 112, enantiomer 1]", "IC50", "< 100 nM"],
  ["N#Cc1ccc2c(c1F)CC[C@@H]2Oc1ccc2[nH]nc(-c3cnn(C(F)F)c3)c2c1 (single isomer, unassigned) [Example 51, enantiomer 1]", "IC50", "< 100 nM"],
  ["N#Cc1ccc2c(c1)CCC[C@@H]2Nc1ccc2[nH]nc(-c3ccc(N4CCOCC4)cc3)c2c1 (single isomer, unassigned)", "IC50", "< 100 nM"],
  ["N#Cc1cnc2c(c1)CCC[C@H]2Nc1ccc2[nH]nc(-c3cnco3)c2c1 (single isomer, unassigned) [Example 120, enantiomer 1]", "IC50", "< 100 nM"],
  ["Cc1ncc(-c2n[nH]c3ccc(O[C@H]4CCc5cc(C#N)c(F)cc54)cc23)o1 (single isomer, unassigned) [Example 160, enantiomer 1]", "IC50", "< 100 nM"]
]}

Attention now shifts to the item below.
[ask] Identify IC50 associated with the compound N#Cc1nc2c(o1)CCC2Nc1ccc2[nH]nc(-c3cnco3)c2c1 (single isomer, unassigned) [Example 36, enantiomer 1]
[reply] 100 to 1000 nM

----------
molecular target: LRRK2 G2019S (Homo sapiens, UniProt Q5S007, G2019S); experiment: LRRK2 Kinase Activity Assay (LanthaScreen TR-FRET), G2019S; settings: recombinant G2019S-LRRK2, 25 μM ATP, 400 nM LRRKtide, 60 min; class symbols
pIC50: −log10 of the molar value.
measured-property: pIC50

{"columns": ["compound", "measured-property", "result"],
 "data": [
  ["Cn1ccc(-c2n[nH]c3ccc(N[C@H]4CCCc5cc(C#N)cnc54)cc23)c1 (single isomer, unassigned) [Example 149, enantiomer 1]", "pIC50", "6.00 to 7.00"],
  ["N#Cc1ccc2c(c1)CCC[C@@H]2Nc1cc2c(-c3cnco3)n[nH]c2cn1 (single isomer, unassigned) [Example 33, enantiomer 2]", "pIC50", "6.00 to 7.00"],
  ["N#Cc1cnc2c(c1C(F)(F)F)CCC[C@@H]2Nc1ccc2[nH]nc(-c3cnco3)c2c1 (single isomer, unassigned) [Example 145, enantiomer 1]", "pIC50", "> 7.00"],
  ["CC1(C)Cc2cc(C#N)cnc2[C@H]1Nc1ccc2[nH]nc(-c3cnco3)c2c1 (single isomer, unassigned) [Example 172, enantiomer 1]", "pIC50", "6.00 to 7.00"],
  ["N#Cc1cnc2c(c1)CCC[C@@H]2Nc1ccc2[nH]nc(-c3cnoc3)c2c1 (single isomer, unassigned) [Example 7, enantiomer 2]", "pIC50", "> 7.00"]
]}

Attention now shifts to the item below.
[ask] Identify pIC50 associated with the compound N#Cc1cccc2c1[C@@H](Oc1ccc3[nH]nc(-c4cnco4)c3c1)CC2 (single isomer, unassigned) [Example 37, enantiomer 1]
[reply] > 7.00

----------
biological target: LRRK2 WT (Homo sapiens); construct: purchased Life Technologies PR8604B; experiment: LRRK2 Kinase Activity Assay (LanthaScreen TR-FRET), wild type; type: biochemical; conditions: recombinant wild type LRRK2, 25 μM ATP, 400 nM LRRKtide, 60 min; class symbols
measured-property: IC50

Consider the following illustrative entries.
{"columns": ["compound", "measured-property", "result"],
 "data": [
  ["N#Cc1ccc2c(c1)CC[C@@H]2Nc1cc2c(-c3cnco3)n[nH]c2cn1 (single isomer, unassigned) [Example 21, enantiomer 1]", "IC50", "< 100 nM"],
  ["Cc1c(C#N)ccc2c1CC[C@@H]2Nc1ccc2[nH]nc(I)c2c1 (single isomer, unassigned) [Example 127, enantiomer 1]", "IC50", "100 to 1000 nM"],
  ["N#Cc1ccc2c(c1)CC[C@@H]2Nc1ccc2[nH]nc(-c3ccoc3)c2c1 (single isomer, unassigned) [Example 11, enantiomer 2]", "IC50", "< 100 nM"],
  ["N#Cc1ccc2c(c1)CCC[C@@H]2Nc1ccc2[nH]nc(-c3ccc(F)c(C(=O)O)c3)c2c1 (single isomer, unassigned)", "IC50", "100 to 1000 nM"],
  ["N#Cc1cnc2c(c1)C1CC1[C@@H]2Nc1ccc2[nH]nc(-c3cnco3)c2c1 (single isomer, unassigned) [Example 48, enantiomer 1]", "IC50", "< 100 nM"]
]}

Attention now shifts to the item below.
[ask] Identify IC50 associated with the compound N#Cc1ccc2c(c1)CCC[C@@H]2Nc1ccc2[nH]nc(-c3ccc4cc[nH]c4c3)c2c1 (single isomer, unassigned)
[reply] 100 to 1000 nM
